target: Nuclear receptor subfamily 1 group I member 3 (Homo sapiens) (UniProt Q14994); test: qHTS assay to identify small molecule agonists of the constitutive androstane receptor (CAR) signaling pathway (AID 1224839); settings: HepG2 hCAR CYP2B6-luciferase, agonist mode, 24 h; series mostly up to 92.4 µM; further: nearly all actives have a fitted effect of over 15% in size;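 on activation: HepG2 cells stably carrying human CAR and a CYP2B6 luciferase reporter; on the % scale 0 is the no-effect control and ±100 the full control effect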
Sequence (Q14994 whole entry, looked up): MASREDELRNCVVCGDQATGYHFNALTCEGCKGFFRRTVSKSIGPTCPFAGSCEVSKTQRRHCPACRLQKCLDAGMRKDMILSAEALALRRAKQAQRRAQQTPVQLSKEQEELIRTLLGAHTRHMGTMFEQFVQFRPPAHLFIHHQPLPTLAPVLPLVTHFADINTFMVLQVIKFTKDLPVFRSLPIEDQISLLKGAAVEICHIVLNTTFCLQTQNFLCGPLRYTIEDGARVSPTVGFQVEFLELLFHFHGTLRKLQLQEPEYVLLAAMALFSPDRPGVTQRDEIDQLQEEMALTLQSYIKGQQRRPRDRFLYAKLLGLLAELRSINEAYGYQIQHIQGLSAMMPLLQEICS
Records with an inconclusive call do not appear. Activity calls are given as the source filed them. The call rests on the fitted dose curve; in most records, active means well fitted activation curve with a large enough effect in the repeat runs; inconclusive means weak or mixed curves; inactive means no such curve, though single readings can be large or run the other way.
Allowed answers: 1 for active, 0 for inactive

{"molecule": "CCCCCCCCCCCCCCCC[N+](C)(C)C", "assayedSystem": "Nuclear receptor subfamily 1 group I member 3 (Homo sapiens) (UniProt Q14994)", "cat": 0}
{"molecule": "Cn1[nH]nnc1=S", "assayedSystem": "Nuclear receptor subfamily 1 group I member 3 (Homo sapiens) (UniProt Q14994)", "cat": 0}
{"molecule": "CC(C)(C)OO", "assayedSystem": "Nuclear receptor subfamily 1 group I member 3 (Homo sapiens) (UniProt Q14994)", "cat": 0}
{"molecule": "N#Cc1ccc(O)cc1", "assayedSystem": "Nuclear receptor subfamily 1 group I member 3 (Homo sapiens) (UniProt Q14994)", "cat": 0}
{"molecule": "C=CCOC(N)=O", "assayedSystem": "Nuclear receptor subfamily 1 group I member 3 (Homo sapiens) (UniProt Q14994)", "cat": 0}
{"molecule": "C[C@@H]1O[C@@H](O[C@@H]2C=C3CC[C@@H]4[C@H](CC[C@]5(C)[C@@H](c6ccc(=O)oc6)CC[C@]45O)[C@@]3(C)CC2)[C@H](O)[C@H](O)[C@H]1O", "assayedSystem": "Nuclear receptor subfamily 1 group I member 3 (Homo sapiens) (UniProt Q14994)", "cat": 0}

Kindly provide the recorded test outcome for the following molecule: COP(N)(=S)OC
0

Kindly provide the recorded test outcome for the following molecule: CC(=O)C(Cl)(Cl)Cl
0

Kindly provide the recorded test outcome for the following molecule: Cc1cc(C(C)(C)c2cc(C)c(O)c(C)c2)cc(C)c1O
1

Kindly provide the recorded test outcome for the following molecule: CC(C)(O)c1cnn2c(-c3ccc(F)c(-c4c(F)cccc4C#N)c3)cnc2n1
0

Kindly provide the recorded test outcome for the following molecule: CN(C)CCc1c[nH]c2ccc(O)cc12
0

Kindly provide the recorded test outcome for the following molecule: S=C(SSC(=S)N1CCCCC1)N1CCCCC1
0

Kindly provide the recorded test outcome for the following molecule: CCS(=O)(=O)c1cccnc1S(=O)(=O)NC(=O)Nc1nc(OC)cc(OC)n1
1

Kindly provide the recorded test outcome for the following molecule: N#CNC#N
0

Kindly provide the recorded test outcome for the following molecule: N#CCCC(Br)(C#N)CBr (stereo unspecified)
0

Kindly provide the recorded test outcome for the following molecule: CCOC(=O)CC(=O)CCl
0

====

experiment: qHTS assay to identify small molecule antagonists of the peroxisome proliferator-activated receptor delta (PPARd) signaling pathway - cell viability counter screen (AID 743213); details: PPARd-bla HEK293H viability, CellTiter-Glo luminescence, 17 h; series mostly up to 62 µM; further: nearly all actives have a fitted effect of over 50% in size
Records with an inconclusive call do not appear. Activity calls are given as the source filed them. Calls follow the shape of the dose curve; as a rule, active = well fitted cell-killing curve with a large enough effect in the repeat runs; inconclusive = weak or mixed curves; inactive = no such curve, though single readings can be large or run the other way.
Allowed answers: Y for active, N for inactive

{"compound": "OC(c1ccc(Cl)cc1)(c1ccc(Cl)cc1)C(Cl)(Cl)Cl", "cat": "N"}

Kindly provide the recorded test outcome for the following compound: Nc1ccccc1C(=O)Oc1ccc2ccccc2c1
N

Kindly provide the recorded test outcome for the following compound: CC1(c2ccc(Oc3ccccc3)cc2)OC(=O)N(Nc2ccccc2)C1=O (stereo unspecified)
Y

Kindly provide the recorded test outcome for the following compound: CCCOCC(=Nc1ccc(Cl)cc1C(F)(F)F)n1ccnc1
Y

Kindly provide the recorded test outcome for the following compound: CCCCCCCCCCCCCCCCCCn1cc[n+](C)c1
Y

Kindly provide the recorded test outcome for the following compound: O=C(Nc1ccc2[nH]ccc2c1)c1cc2cc(F)ccc2n1Cc1cccc(F)c1
Y

====

experiment: qHTS RealTime-Glo MT Cell Viability Assay in HepG2 cells - 24 hour (AID 1224867); conditions: RealTime-Glo luminescence; series mostly up to 76.8 µM; further: nearly all actives have a fitted effect of over 50% in size
Results filed as inconclusive are left out. Calls of active or inactive are those of the source. Calls follow the shape of the dose curve; as a rule, active = well fitted cell-killing curve with a large enough effect in the repeat runs; inconclusive = weak or mixed curves; inactive = flat fitted curve, though single readings scatter.
Allowed answers: 1 (yes) for active, 0 (no) for inactive

Worked cases, answers included:
{"compound": "O=CC(Br)(Br)Br", "cat": "1 (yes)"}
{"compound": "Oc1ccc(I)cc1", "cat": "0 (no)"}
{"compound": "CC1(c2ccc(Oc3ccccc3)cc2)OC(=O)N(Nc2ccccc2)C1=O (configuration not stated)", "cat": "1 (yes)"}
{"compound": "Cc1cc(C(F)(C(F)(F)F)C(F)(F)F)ccc1NC(=O)c1cccc(I)c1C(=O)NC(C)(C)CS(C)(=O)=O", "cat": "0 (no)"}
{"compound": "COc1ccc(OC)c(CC(C)N)c1 (configuration not stated)", "cat": "0 (no)"}
{"compound": "CSCCCN=C=S", "cat": "0 (no)"}

Kindly provide the recorded test outcome for the following compound: CCCN(CCC)CCc1c[nH]c2ccccc12
0 (no)

Kindly provide the recorded test outcome for the following compound: O=C1C=CC(=O)c2ccccc21
1 (yes)

Kindly provide the recorded test outcome for the following compound: C[C@@H]1CC[C@@]2(OC1)O[C@H]1[C@@H](O)[C@H]3[C@@H]4CC[C@H]5C[C@@H](O[C@@H]6O[C@H](CO)[C@H](O[C@@H]7O[C@H](CO)[C@@H](O)[C@H](O[C@@H]8OC[C@@H](O)[C@H](O)[C@H]8O)[C@H]7O[C@@H]7O[C@H](CO)[C@@H](O)[C@H](O[C@@H]8O[C@H](CO)[C@@H](O)[C@H](O)[C@H]8O)[C@H]7O)[C@H](O)[C@H]6O)[C@H](O)C[C@]5(C)[C@H]4CC[C@]3(C)[C@H]1[C@@H]2C
1 (yes)

Kindly provide the recorded test outcome for the following compound: O=C(O)c1cc[c]([Hg][Cl])cc1
1 (yes)

Kindly provide the recorded test outcome for the following compound: CN(C)c1ccc(N=Nc2ccccc2)cc1
0 (no)

Kindly provide the recorded test outcome for the following compound: OC(Cc1ccccc1Cl)(Cn1cncn1)C1(Cl)CC1 (configuration not stated)
0 (no)

Kindly provide the recorded test outcome for the following compound: CN(CCCC(O)c1cccnc1)N=O (configuration not stated)
0 (no)

====

assay: qHTS assay to identify small molecule agonists of the endoplasmic reticulum stress response signaling pathway (AID 1159516); conditions: ESRE-bla HeLa, ER stress beta-lactamase reporter, 5 h; series mostly up to 61 µM; further: on the % scale 0 is the no-effect control and ±100 the full control effect
Records with an inconclusive call do not appear. The source made the active and inactive calls. Calls come from the whole dose curve; as a rule, active = well fitted activation curve with a large enough effect in the signal ratio in the repeat runs (not every such curve was filed as active); inconclusive = weak or mixed curves, or effect the other way; inactive = flat fitted curve, though single readings scatter; the % refers to the signal ratio.
measuredParameter: outcome

// worked examples, outcome included
{"molecule": "CC1(C)CC/C(=C/c2ccc(Cl)cc2)C1(O)Cn1cncn1 (stereo unspecified)", "outcome": "inactive"}
{"molecule": "Cc1cc(C)cc(OP(=O)(Oc2cc(C)cc(C)c2)Oc2cc(C)cc(C)c2)c1", "outcome": "inactive"}
{"molecule": "CC(C)CCCCCCCOP(=O)(Oc1ccccc1)Oc1ccccc1", "outcome": "inactive"}
{"molecule": "CC(C)CC(C)N (stereo unspecified)", "outcome": "inactive"}
{"molecule": "COc1ccc(/C(=C/C(=O)N2CCOCC2)c2ccc(Cl)cc2)cc1OC", "outcome": "inactive"}

Sample COc1cccc(C(=O)CCN[C@@H](C)[C@H](O)c2ccccc2)c1 — what was its outcome?
inactive

====

target: Acetylcholinesterase (Homo sapiens) (UniProt P22303); test: Acetylcholinesterase (AChE) small molecule antagonists: enzyme-based qHTS assay (AID 1347397); conditions: AChE enzyme activity inhibition; series mostly up to 115 µM; further: nearly all actives have a fitted effect of over 55% in size
Sequence (P22303 whole entry, looked up): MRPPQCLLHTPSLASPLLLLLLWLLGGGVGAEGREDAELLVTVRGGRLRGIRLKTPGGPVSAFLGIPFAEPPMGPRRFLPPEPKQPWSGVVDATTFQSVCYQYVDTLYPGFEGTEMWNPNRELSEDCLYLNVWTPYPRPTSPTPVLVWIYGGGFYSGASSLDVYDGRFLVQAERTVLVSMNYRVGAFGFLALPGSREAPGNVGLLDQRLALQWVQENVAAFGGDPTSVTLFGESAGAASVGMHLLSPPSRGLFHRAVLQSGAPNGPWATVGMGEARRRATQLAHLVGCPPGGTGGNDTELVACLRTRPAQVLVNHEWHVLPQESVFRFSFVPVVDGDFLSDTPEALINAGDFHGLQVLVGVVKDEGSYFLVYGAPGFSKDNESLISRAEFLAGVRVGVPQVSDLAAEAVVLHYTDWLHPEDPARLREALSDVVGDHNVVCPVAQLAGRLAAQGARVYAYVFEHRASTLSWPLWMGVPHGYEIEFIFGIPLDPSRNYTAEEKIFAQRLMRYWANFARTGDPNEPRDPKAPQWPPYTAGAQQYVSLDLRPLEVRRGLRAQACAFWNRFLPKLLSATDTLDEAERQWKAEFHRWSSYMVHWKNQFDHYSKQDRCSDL
Activity calls are given as the source filed them. Calls come from the whole dose curve.
Allowed answers: t for active, f for inactive

Worked cases, answers included:
{"compound": "c1cc[c]([Sb]([c]2ccccc2)[c]2ccccc2)cc1", "cat": "f"}
{"compound": "CN(C)C1CSSSC1", "cat": "f"}
{"compound": "O=C(O)C1C2CCC(O2)C1C(=O)O (centres undefined)", "cat": "f"}
{"compound": "CCOP(=O)(NC(C)C)Oc1ccc(SC)c(C)c1 (centres undefined)", "cat": "t"}
{"compound": "Fc1ccc(Oc2ccnc3cc(Cl)cc(Cl)c23)cc1", "cat": "f"}
{"compound": "CCOC(=O)C1(c2ccccc2)CCN(CCC(C#N)(c2ccccc2)c2ccccc2)CC1", "cat": "f"}

Kindly provide the recorded test outcome for the following compound: O=[N+]([O-])c1c2ccccc2cc2ccccc12
f

Kindly provide the recorded test outcome for the following compound: Oc1ccccc1Br
f

Kindly provide the recorded test outcome for the following compound: N#CSCSC#N
f

Kindly provide the recorded test outcome for the following compound: O=C(CCl)Nc1ccccc1
f

Kindly provide the recorded test outcome for the following compound: Oc1c(Br)c(Br)c(Br)c(Br)c1Br
f

Kindly provide the recorded test outcome for the following compound: CC(=O)c1cc(C(C)(C)C)cc2c1CCC2(C)C
f

Kindly provide the recorded test outcome for the following compound: O=C(Nc1ccc2[nH]ccc2c1)c1cc2cc(F)ccc2n1Cc1cccc(F)c1
f

Kindly provide the recorded test outcome for the following compound: CCCCCCCCCC[N+](C)(C)CCCCCCCCCC
t

Kindly provide the recorded test outcome for the following compound: CC(=O)Nc1ccc2c(c1)Cc1ccccc1-2
f

Kindly provide the recorded test outcome for the following compound: CN(CCCC(O)c1cccnc1)N=O (centres undefined)
f

Kindly provide the recorded test outcome for the following compound: ClC1=C(Cl)[C@]2(Cl)[C@@H]3[C@@H](Cl)[C@@H](Cl)C[C@@H]3[C@@]1(Cl)C2(Cl)Cl
f

Kindly provide the recorded test outcome for the following compound: CCC(C)c1cc([N+](=O)[O-])cc([N+](=O)[O-])c1OC(=O)C=C(C)C (centres undefined)
f

Kindly provide the recorded test outcome for the following compound: O=C(CCl)C(Cl)Cl
f

Kindly provide the recorded test outcome for the following compound: Clc1ccc(Oc2ccccc2)cc1
f

Kindly provide the recorded test outcome for the following compound: Oc1ccc(I)cc1
f

Kindly provide the recorded test outcome for the following compound: N#Cc1ccccc1Cl
f

Kindly provide the recorded test outcome for the following compound: COC12CC[C@@]3(C[C@@H]1C(C)(O)C(C)(C)C)[C@H]1Cc4ccc(O)c5c4[C@@]3(CCN1CC1CC1)[C@H]2O5 (some centres undefined)
f

Kindly provide the recorded test outcome for the following compound: Oc1ccc(C2(c3ccc(O)cc3)CCCCC2)cc1
f

Kindly provide the recorded test outcome for the following compound: C=CC(=O)OCCCCOC(=O)C=C
f

Kindly provide the recorded test outcome for the following compound: BrC(Br)C(Br)(Br)Br
f
